target: Vitamin D3 receptor (Bos taurus); experiment: Displacement of [3H]1,25-(OH)2D3 from bovine thymus vitamin D receptor
Sequence (Q28037 whole entry): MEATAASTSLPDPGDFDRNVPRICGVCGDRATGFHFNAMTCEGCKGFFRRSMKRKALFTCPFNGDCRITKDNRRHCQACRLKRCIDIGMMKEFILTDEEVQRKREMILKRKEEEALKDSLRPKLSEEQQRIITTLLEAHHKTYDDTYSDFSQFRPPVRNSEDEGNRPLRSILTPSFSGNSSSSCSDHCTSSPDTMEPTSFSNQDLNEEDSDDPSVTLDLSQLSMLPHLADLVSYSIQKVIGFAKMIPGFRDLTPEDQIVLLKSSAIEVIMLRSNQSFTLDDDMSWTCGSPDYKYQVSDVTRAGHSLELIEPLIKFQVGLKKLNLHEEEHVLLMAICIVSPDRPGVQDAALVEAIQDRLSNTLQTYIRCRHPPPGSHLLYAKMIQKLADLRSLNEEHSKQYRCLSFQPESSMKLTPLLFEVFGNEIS
Measurement label: EC50

[
  {
    "Structure smiles string": "C=C1/C(=C\\C=C2/CCC[C@]3(C)[C@@H]([C@@H](C)[C@@H](CCO)CCCC)CC[C@@H]23)C[C@@H](O)C[C@@H]1O",
    "EC50": "20 nM"
  },
  {
    "Structure smiles string": "C=C1/C(=C\\C=C2/CCC[C@]3(C)[C@@H]([C@H](C)[C@H](CCCC)C[C@@H](O)C(C)C)CC[C@@H]23)C[C@@H](O)C[C@@H]1O",
    "EC50": "16 nM"
  },
  {
    "Structure smiles string": "C=C1/C(=C\\C=C2/CCC[C@]3(C)[C@@H]([C@H](C)[C@H](CCCC)C[C@H](O)C(C)C)CC[C@@H]23)C[C@@H](O)C[C@@H]1O",
    "EC50": "3.4 nM"
  }
]

Report EC50 for C=C1/C(=C\C=C2/CCC[C@]3(C)[C@@H]([C@H](C)[C@H](CCO)CCCC)CC[C@@H]23)C[C@@H](O)C[C@@H]1O tested on Vitamin D3 receptor (Bos taurus). 1.2 nM

Report EC50 for C=C1/C(=C\C=C2/CCC[C@]3(C)[C@@H]([C@@H](C)[C@H](CCO)CCCC)CC[C@@H]23)C[C@@H](O)C[C@@H]1O tested on Vitamin D3 receptor (Bos taurus). 2 nM

====

Measured pEC50 of individual entries
target: Vitamin D3 receptor (Bos taurus); experiment: Displacement of [3H]1,25-(OH)2D3 from bovine thymus vitamin D receptor
pEC50 here: minus log base 10 of the concentration, concentration in moles per litre.

// solved cases for pEC50 follow
[
  {
    "Structure smiles string": "C=C1/C(=C\\C=C2/CCC[C@]3(C)[C@@H]([C@H](C)[C@@H](CCCC)C[C@@H](O)C(C)C)CC[C@@H]23)C[C@@H](O)C[C@@H]1O",
    "Target system": "Vitamin D3 receptor (Bos taurus)",
    "Result value": 7.70
  },
  {
    "Structure smiles string": "C=C1/C(=C\\C=C2/CCC[C@]3(C)[C@@H]([C@H](C)[C@@H](CCO)CCCC)CC[C@@H]23)C[C@@H](O)C[C@@H]1O",
    "Target system": "Vitamin D3 receptor (Bos taurus)",
    "Result value": 7.96
  }
]

Report pEC50 for C=C1/C(=C\C=C2/CCC[C@]3(C)[C@@H]([C@H](C)[C@@H](CCCC)C[C@H](O)C(C)C)CC[C@@H]23)C[C@@H](O)C[C@@H]1O tested on Vitamin D3 receptor (Bos taurus). 8.42
